# Test system: Candida albicans (IFO 0538)
# procedure-text: Antifungal activity against Candida albicans, paper disc growth inhibition zone (Tables 5 and 6)
# Format: cell-based
# condition-description: 48 h, pH 7, B medium (yeast nitrogen base agar, pH 7.0), 28° C., 2 days incubation; read-out: Inhibition zone diameter
# Method: The antifungal activities of the compounds (I) were evaluated by the following method: a sheet of filter paper disc (manufactured by Toyo Seisakusho, 8 mm in diameter) soaked in a 1000 μg/ml solution of a compound (I) in methanol was placed on an agar plate, which was incubated at 28° C. for 2 days, and the diameter of the growth inhibition zone around the filter paper disc was measured. The following culture media were used: A: yeast nitrogen base agar medium […]
zone of inhibition at 1000 µg/mL values for the compounds below.
Express your answer as a number followed by its unit.

Examples from the recorded data:
[[record]]
compound = "C[C@@H](SCc1nccn1C(CF)CF)[C@](O)(Cn1cncn1)c1ccc(F)cc1F (relative stereo) [Compound 59]"
recorded_measurement = "30 mm"

[[record]]
compound = "C[C@@H](SCc1nccn1C1CC1)[C@](O)(Cn1cncn1)c1ccc(F)cc1F [Compound 110]"
recorded_measurement = "40 mm"

[[record]]
compound = "CC(=O)S[C@H](C)[C@](O)(Cn1cncn1)c1ccc(F)cc1F (relative stereo) [Compound 40]"
recorded_measurement = "50 mm"


I looked up C[C@@H](SCc1nncn1C1CC1)[C@](O)(Cn1cncn1)c1ccc(F)cc1F [Compound 114] and its zone of inhibition at 1000 µg/mL for Candida albicans (IFO 0538) was 15 mm

Summary line: C[C@@H](SCc1cncn1C)[C@](O)(Cn1cncn1)c1ccc(F)cc1F [Compound 91] , Candida albicans (IFO 0538), reported zone of inhibition at 1000 µg/mL = 30 mm

Tested on Candida albicans (IFO 0538), the item CC(C)n1ccnc1CS[C@H](C)[C@](O)(Cn1cncn1)c1ccc(F)cc1F [Compound 102] showed zone of inhibition at 1000 µg/mL equal to 35 mm

---

# Test system: Candida albicans (IFO 0538)
# procedure-text: Antifungal activity against Candida albicans, paper disc growth inhibition zone (Tables 5 and 6)
# Assay type: cell-based
# condition-description: 48 h, pH 7, B medium (yeast nitrogen base agar, pH 7.0), 28° C., 2 days incubation; read-out: Inhibition zone diameter
Where a name gives a salt, the structure may show the parent alone.
Below, each entry is listed alongside its reported zone of inhibition at 1000 µg/mL.

The compound listed as C[C@@H](SCc1ncn(C)n1)[C@](O)(Cn1cncn1)c1ccc(F)cc1F (relative stereo) shows zone of inhibition at 1000 µg/mL equal to 40 mm

zone of inhibition at 1000 µg/mL recorded for this compound, C[C@@H](SCc1cn2cccnc2n1)[C@](O)(Cn1cncn1)c1ccc(F)cc1F , is 33 mm

Form field zone of inhibition at 1000 µg/mL, entry C[C@@H](SCCn1cncn1)[C@](O)(Cn1cncn1)c1ccc(F)cc1F (relative stereo) [13(hydrochloride)] : 25 mm

Summary for this compound, Cn1nnnc1SCCSCC(O)(Cn1cncn1)c1ccc(F)cc1F (stereo not drawn) : zone of inhibition at 1000 µg/mL is 25 mm

Given item Cc1csc(CS[C@H](C)[C@](O)(Cn2cncn2)c2ccc(F)cc2F)n1 [Compound 99] , the value recorded as its zone of inhibition at 1000 µg/mL is 35 mm

Entry C[C@@H](SCc1ccncc1)[C@](O)(Cn1cncn1)c1ccc(F)cc1F (relative stereo) — recorded zone of inhibition at 1000 µg/mL = 25 mm

Note to self: zone of inhibition at 1000 µg/mL recorded for C[C@@H](SCc1nccn1C)[C@](O)(Cn1cncn1)c1ccc(F)cc1F (relative stereo) [Compound 16] was 25 mm

---

# System: Candida albicans (IFO 0538)
# procedure-text: Antifungal activity against Candida albicans, paper disc growth inhibition zone (Tables 5 and 6)
# Type: cell-based
# condition-description: 48 h, pH 7, B medium (yeast nitrogen base agar, pH 7.0), 28° C., 2 days incubation; read-out: Inhibition zone diameter
Entries and their measured zone of inhibition at 1000 µg/mL follow.
Give your result as the value with the unit written after it.

[[record]]
compound = "C[C@@H](SCc1ncc2cnccn12)[C@](O)(Cn1cncn1)c1ccc(F)cc1F [Compound 112]"
recorded_measurement = "30 mm"

[[record]]
compound = "CC(=O)S[C@@H](C)[C@](O)(Cn1cncn1)c1ccc(F)cc1F (relative stereo)"
recorded_measurement = "30 mm"

[[record]]
compound = "CC(C)n1ccnc1CS[C@H](C)[C@](O)(Cn1cncn1)c1ccc(F)cc1F (relative stereo) [Compound 47]"
recorded_measurement = "25 mm"

[[record]]
compound = "C[C@@H](SCc1cncn1C)[C@](O)(Cn1cncn1)c1ccc(F)cc1F (racemic) [Compound 29]"
recorded_measurement = "38 mm"

[[record]]
compound = "C[C@@H](SCc1nccn1CC(F)(F)C(F)F)[C@](O)(Cn1cncn1)c1ccc(F)cc1F (relative stereo)"
recorded_measurement = "40 mm"

[[record]]
compound = "CC(n1cncn1)C(O)(CS)c1ccc(F)cc1F (single isomer, unassigned)"
recorded_measurement = "33 mm"

[[record]]
compound = "C[C@@H](SCc1cnc2cccnn12)[C@](O)(Cn1cncn1)c1ccc(F)cc1F"
recorded_measurement = "35 mm"

[[record]]
compound = "C[C@@H](SCc1nccn1C)[C@](O)(Cn1cncn1)c1ccc(F)cc1F [Compound 78]"
recorded_measurement = "30 mm"

[[record]]
compound = "Cc1ncc(CS[C@H](C)[C@](O)(Cn2cncn2)c2ccc(F)cc2F)s1 [Compound 108]"
recorded_measurement = "40 mm"

[[record]]
compound = "Cc1nccc(CS[C@H](C)[C@](O)(Cn2cncn2)c2ccc(F)cc2F)n1"
recorded_measurement = "33 mm"


For reference, reported zone of inhibition at 1000 µg/mL for C[C@@H](SCc1nncn1C)[C@](O)(Cn1cncn1)c1ccc(F)cc1F [Compound 95] stands at 28 mm

// zone of inhibition at 1000 µg/mL value for C[C@@H](SCc1cn2ccccc2n1)[C@](O)(Cn1cncn1)c1ccc(F)cc1F (relative stereo) : 45 mm

---

# Test system: Candida albicans (IFO 0538)
# procedure-text: Antifungal activity against Candida albicans, paper disc growth inhibition zone (Tables 5 and 6)
# Type: cell-based
# condition-description: 48 h, pH 7, B medium (yeast nitrogen base agar, pH 7.0), 28° C., 2 days incubation; read-out: Inhibition zone diameter
// criterion not met strictly below 30 mm in zone of inhibition at 1000 µg/mL; criterion met otherwise

Please review the entries below; each comes with its answer.
[[record]]
compound = "C[C@@H](SCc1csc(C(F)(F)F)n1)[C@](O)(Cn1cncn1)c1ccc(F)cc1F"
target_system = "Candida albicans (IFO 0538)"
label = "criterion met"

[[record]]
compound = "CC(=O)S[C@H](C)[C@](O)(Cn1cncn1)c1ccc(F)cc1F [Compound 45]"
target_system = "Candida albicans (IFO 0538)"
label = "criterion met"

[[record]]
compound = "C[C@@H](SCc1nccn1CC(F)(F)F)[C@](O)(Cn1cncn1)c1ccc(F)cc1F (relative stereo)"
target_system = "Candida albicans (IFO 0538)"
label = "criterion not met"

[[record]]
compound = "C[C@@H](SCc1ncc2ncccn12)[C@](O)(Cn1cncn1)c1ccc(F)cc1F"
target_system = "Candida albicans (IFO 0538)"
label = "criterion met"


Item C[C@@H](SCCc1nccn1C)[C@](O)(Cn1cncn1)c1ccc(F)cc1F (racemic) with zone of inhibition at 1000 µg/mL of 30 mm or above?
criterion not met

Check this compound for zone of inhibition at 1000 µg/mL at or above 30 mm: Cc1oc(=O)oc1CS[C@H](C)[C@](O)(Cn1cncn1)c1ccc(F)cc1F [Compound 111]
criterion met

---

# System: Candida albicans (IFO 0538)
# procedure-text: Antifungal activity against Candida albicans, paper disc growth inhibition zone (Tables 5 and 6)
# Format: cell-based
# condition-description: 48 h, pH 7, B medium (yeast nitrogen base agar, pH 7.0), 28° C., 2 days incubation; read-out: Inhibition zone diameter
measured-endpoint: zone of inhibition at 1000 µg/mL (mm)
Please give a number only; it is taken to be in mm.

[[record]]
compound = "OC(Cn1cncn1)(c1ccc(F)cc1F)C1(S)CC1 (centres unmarked)"
target_system = "Candida albicans (IFO 0538)"
measured_endpoint = "zone of inhibition at 1000 µg/mL"
unit = "mm"
recorded_measurement = 30


Record Cc1nc(CS[C@H](C)[C@](O)(Cn2cncn2)c2ccc(F)cc2F)sc1C (relative stereo) , field zone of inhibition at 1000 µg/mL: 45

What the record says about OC(CSCCSCCn1cncn1)(Cn1cncn1)c1ccc(F)cc1F (centres unmarked) : zone of inhibition at 1000 µg/mL is 20

The compound identified as Cn1ccnc1CSCCSCC(O)(Cn1cncn1)c1ccc(F)cc1F (centres unmarked) registered its zone of inhibition at 1000 µg/mL at 25

Value of zone of inhibition at 1000 µg/mL reported for the compound Cc1nnc(S[C@H](C)[C@](O)(Cn2cncn2)c2ccc(F)cc2F)s1 (relative stereo) is 45
